Data origin: patent US11559510B2

Assay: Plasma pharmacokinetic studies of idronoxil in rats (rectal in cocoa butter vs intestinal in lipid emulsion)
Type: in vivo, Male Sprague-Dawley rats
Conditions: male, Sprague-Dawley, rat, plasma, other: intraduodenal infusion, 10 mg/kg, Intestinal delivery (intraduodenal infusion), lipid emulsion, 10 mg/kg, 7 hr; read-out: Idronoxil Plasma Concentration Rat 1
Experimental: The objective of this study in rodents is to determine the plasma pharmacokinetics of idronoxil after rectal delivery and intestinal delivery in lipids (cocoa butter or emulsion). […] Sample analysis: Plasma concentrations of idronoxil were measured by the HMST-lab using a validated HPLC-MS/MS method. […] MS analysis was conducted in positive mode electrospray ionisation and quantitation of the analytes performed in MRM mode. […]
OBSERVED PROPERTY: concentration at 7 h (ng/mL)
Give bare numbers, in ng/mL.

So, Oc1ccc(C2=Cc3ccc(O)cc3OC2)cc1 [Idronoxil] ? Its concentration at 7 h was 4.68

----------
Assay: Plasma pharmacokinetic studies of idronoxil in rats (rectal in cocoa butter vs intestinal in lipid emulsion)
Type: in vivo, Male Sprague-Dawley rats
Conditions: male, Sprague-Dawley, rat, plasma, other: rectal, 10 mg/kg, Rectal delivery, cocoa butter, 10 mg/kg, 2 hr; read-out: Idronoxil Plasma Concentration Rat 2
OBSERVED PROPERTY: concentration at 2 h (ng/mL)
Give bare numbers, in ng/mL.

So, Oc1ccc(C2=Cc3ccc(O)cc3OC2)cc1 ? Its concentration at 2 h was 88.1

----------
Test: Plasma pharmacokinetic studies of idronoxil in rats (rectal in cocoa butter vs intestinal in lipid emulsion)
Format: in vivo, Male Sprague-Dawley rats
Settings: male, Sprague-Dawley, rat, plasma, other: intraduodenal infusion, 10 mg/kg, Intestinal delivery (intraduodenal infusion), lipid emulsion, 10 mg/kg, 2 hr; read-out: Idronoxil Plasma Concentration Rat 2
OBSERVED PROPERTY: concentration at 2 h (ng/mL)
Numbers only, in ng/mL.

So, Oc1ccc(C2=Cc3ccc(O)cc3OC2)cc1 [Idronoxil] ? Its concentration at 2 h was 140

----------
Assay: Plasma pharmacokinetic studies of idronoxil in rats (rectal in cocoa butter vs intestinal in lipid emulsion)
Format: in vivo, Male Sprague-Dawley rats
Conditions: male, Sprague-Dawley, rat, plasma, other: rectal, 10 mg/kg, Rectal delivery, cocoa butter, 10 mg/kg, 1 hr; read-out: Idronoxil Plasma Concentration Mean
OBSERVED PROPERTY: concentration at 1 h (ng/mL)
Answers are plain numbers, in ng/mL.

So, Oc1ccc(C2=Cc3ccc(O)cc3OC2)cc1 ? Its concentration at 1 h was 49.4

----------
Assay: Plasma pharmacokinetic studies of idronoxil in rats (rectal in cocoa butter vs intestinal in lipid emulsion)
Assay type: in vivo, Male Sprague-Dawley rats
Conditions: male, Sprague-Dawley, rat, plasma, other: intraduodenal infusion, 10 mg/kg, Intestinal delivery (intraduodenal infusion), lipid emulsion, 10 mg/kg, 3 hr; read-out: Idronoxil Plasma Concentration Rat 2
OBSERVED PROPERTY: concentration at 3 h (ng/mL)
Give bare numbers, in ng/mL.

So, Oc1ccc(C2=Cc3ccc(O)cc3OC2)cc1 ? Its concentration at 3 h was 38.2

----------
Experiment: Plasma pharmacokinetic studies of idronoxil in rats (rectal in cocoa butter vs intestinal in lipid emulsion)
Type: in vivo, Male Sprague-Dawley rats
Settings: male, Sprague-Dawley, rat, plasma, other: intraduodenal infusion, 10 mg/kg, Intestinal delivery (intraduodenal infusion), lipid emulsion, 10 mg/kg, 7 hr; read-out: Idronoxil Plasma Concentration Mean
OBSERVED PROPERTY: concentration at 7 h

So, Oc1ccc(C2=Cc3ccc(O)cc3OC2)cc1 ? Its concentration at 7 h was 5.04 ng/mL
